B1: library; a variant is named by its letters at N, in order (parent)
chain: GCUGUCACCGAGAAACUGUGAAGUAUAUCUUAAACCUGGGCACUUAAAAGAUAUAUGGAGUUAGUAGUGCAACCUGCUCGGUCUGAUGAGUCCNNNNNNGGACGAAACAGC

variants of: B1; assay: normalized RNA/DNA level without ligand (relative to sTRSVctl = 100) (log10 (% of sTRSVctl)); HEK293T; ligand: cyclic di-GMP (c-di-GMP-II aptamer); higher = less ribozyme self-cleavage, higher mRNA level; conditions: reporter: mCherry (pCS4076), ligand present: no
Overview of reported normalized RNA/DNA level without ligand (log10) across a group of variants:
Give the value as a plain number.

INSERT INTO measurements (mutation_id, numeric_result) VALUES
  ('ACCCAA', 1.56),
  ('GAAAGU', 1.55);

INPUT: Need normalized RNA/DNA level without ligand (log10), item GUGAAC
OUTPUT: 1.5

INPUT: What value of measured normalized RNA/DNA level without ligand (log10) is listed for AGUAGG ?
OUTPUT: 1.63

INPUT: # input variant: CGAGAG ; wanted: its normalized RNA/DNA level without ligand (log10)
OUTPUT: 1.72

INPUT: Given CAACCU , state its recorded normalized RNA/DNA level without ligand (log10).
OUTPUT: 1.56

INPUT: // lookup normalized RNA/DNA level without ligand (log10) for CGAGUC
OUTPUT: 1.76

INPUT: Which normalized RNA/DNA level without ligand (log10) reading was recorded for the variant AGGUCA ?
OUTPUT: 1.65

INPUT: I would be grateful if you could share the reported normalized RNA/DNA level without ligand (log10) for GAUGCA .
OUTPUT: 1.83
